// reported DC50 per item
Target: ferroportin (Homo sapiens, UniProt Q9NP59)
Sequence (Q9NP59 1-571): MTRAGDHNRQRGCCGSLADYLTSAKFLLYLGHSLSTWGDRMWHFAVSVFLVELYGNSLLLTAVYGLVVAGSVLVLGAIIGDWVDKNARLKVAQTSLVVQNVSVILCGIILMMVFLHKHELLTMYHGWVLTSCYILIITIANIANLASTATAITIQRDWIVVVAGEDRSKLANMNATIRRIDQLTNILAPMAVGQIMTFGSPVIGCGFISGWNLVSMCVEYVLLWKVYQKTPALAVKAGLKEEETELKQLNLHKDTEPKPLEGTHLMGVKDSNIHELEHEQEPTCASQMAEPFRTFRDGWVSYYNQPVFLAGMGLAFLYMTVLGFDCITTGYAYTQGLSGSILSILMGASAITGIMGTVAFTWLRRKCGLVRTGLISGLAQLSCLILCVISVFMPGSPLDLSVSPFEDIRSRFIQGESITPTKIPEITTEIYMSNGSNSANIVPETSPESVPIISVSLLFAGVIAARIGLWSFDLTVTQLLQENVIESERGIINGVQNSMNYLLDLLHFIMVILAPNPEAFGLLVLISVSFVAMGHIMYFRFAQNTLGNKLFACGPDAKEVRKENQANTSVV
Test: FPN activity assay: ferroportin-GFP internalization/degradation in HEK293 cells
Format: cell-based
Set-up: expressed in transfected cells
Settings: ferroportin-GFP HEK293 cells, at least 18 hours; read-out: FPN IC50
Positions of bridges follow the written chain, without caps; N, C: chain ends. Non-standard residues stand in square brackets, D forms with d. Residues, ends and D or L forms follow the SMILES beside them. Groups on a side chain read outwards from the residue. *: point of attachment. C18 diacid = O=C(O)CCCCCCCCCCCCCCCCC(=O)*; Dip = N[C@H](C(=O)O)C(c1ccccc1)c1ccccc1; Palmitoyl = CCCCCCCCCCCCCCCC(=O)*; β3hF = N[C@H](CC(=O)O)Cc1ccccc1; dPen = CC(C)(S)[C@@H](N)C(=O)O; Isovaleryl = CC(C)CC(=O)*; hCys = N[C@@H](CCS)C(=O)O; Dap = NC[C@H](N)C(=O)O; AEEA = NCCOCCOCC(=O)O; Ahx = NCCCCCC(=O)O

The examples below pair each entry with its known result.
# compound, DC50
data = [
    ("CCCCCCCCCCCCCCCC(=O)NCCCCCC(=O)NCCCC[C@H](NC(=O)[C@@H](NC(=O)[C@@H]1CCSSCC[C@H](NC(=O)CC(C)C)C(=O)N[C@@H](CCC(=O)O)C(=O)N[C@@H]([C@@H](C)O)C(=O)N[C@@H](Cc2c[nH]cn2)C(=O)N[C@@H](C(c2ccccc2)c2ccccc2)C(=O)N2CCC[C@H]2C(=O)N1)[C@@H](C)CC)C(=O)N[C@H](CC(N)=O)Cc1ccccc1 [Compd 15] (Isovaleryl-[hCys]ETH[Dip]P[hCys]IK([Ahx-Palmitoyl])[β3hF]-NH2; disulfide 1-7)", "> 500 nM"),
    ("CC[C@H](C)[C@H](NC(=O)[C@@H]1CSSC[C@H](NC(=O)[C@@H](NC(=O)[C@H](Cc2c[nH]cn2)NC(=O)[C@@H](NC(=O)[C@H](CCC(=O)O)NC(=O)CC(C)C)[C@@H](C)O)C(c2ccccc2)c2ccccc2)C(=O)N1)C(=O)N[C@@H](CCCCNC(=O)COCCOCCNC(=O)COCCOCCNC(=O)CCCCCNC(=O)CCCCCCCCCCCCCCCCC(=O)O)C(=O)N[C@H](CC(=O)N[C@H](CCCCN)C(N)=O)Cc1ccccc1 [Compd 21] (Isovaleryl-ETH[Dip]CCIK([AEEA-AEEA-Ahx-C18 diacid])[β3hF][dK]-NH2; disulfide 5-6)", "10 to 100 nM"),
    ("CC(C)CC(=O)N[C@@H](CCC(=O)O)C(=O)N[C@H](C(=O)N[C@@H](Cc1c[nH]cn1)C(=O)N[C@H](C(=O)N1CCC[C@H]1C(=O)N[C@H]1CSSC[C@@H](C(=O)N[C@@H](CCCCNC(=O)COCCOCCNC(=O)COCCOCCNC(=O)[C@H](CN)NC(=O)CCCCCCCCCCCCCCCCC(=O)O)C(=O)N[C@H](CC(=O)N[C@H](CCCCN)C(N)=O)Cc2ccccc2)NC1=O)C(c1ccccc1)c1ccccc1)[C@@H](C)O [Compd 41] (Isovaleryl-ETH[Dip]PCCK([AEEA-AEEA-Dap-C18 diacid])[β3hF][dK]-NH2; disulfide 6-7)", "10 to 100 nM"),
]

Alright, here's another compound for you.
CCCCCCCCCCCCCCCC(=O)NCCCCCC(=O)NCCCC[C@H](NC(=O)C[C@H](Cc1ccccc1)NC(=O)[C@@H]1CSSC(C)(C)[C@@H](NC(=O)CC(C)C)C(=O)N[C@@H]([C@@H](C)O)C(=O)N[C@@H](Cc2c[nH]cn2)C(=O)N[C@@H](C(c2ccccc2)c2ccccc2)C(=O)N2CCC[C@H]2C(=O)N[C@@H](C)C(=O)N[C@@H]([C@@H](C)CC)C(=O)N1)C(=O)N[C@H](CCCCN)C(N)=O [compound 103] (Isovaleryl-[dPen]TH[Dip]PAIC[β3hF]K([Ahx-Palmitoyl])[dK]-NH2; disulfide 1-8) has a reported DC50 of 100 to 500 nM

---

molecular target: ferroportin (Homo sapiens); assay: T47D cell-based ferroportin internalization assay in presence of mouse serum albumin (MSA); set-up: a human breast carcinoma adherent cell line which endogenously expresses ferroportin; host or cells: T47D; conditions: Table 6E; T47D internalization assay with MSA
pIC50: −log10 of the molar value. Positions of bridges follow the written chain, without caps; N, C: chain ends. Non-standard residues stand in square brackets, D forms with d. Residues, ends and D or L forms follow the SMILES beside them. *: point of attachment. Dip = N[C@H](C(=O)O)C(c1ccccc1)c1ccccc1; X3 = CCCCCCCCCCCCCCCC(=O)NCCC*; Isovaleryl = CC(C)CC(=O)*; hCys = N[C@@H](CCS)C(=O)O
readout_type: pIC50

The reported ferroportin (Homo sapiens) pIC50 of CCCCCCCCCCCCCCCC(=O)NCCCSCC[C@H](NC(=O)[C@@H]1CSSC[C@H](NC(=O)[C@@H]2CCCN2C(=O)[C@@H](NC(=O)[C@H](Cc2cnc[nH]2)NC(=O)[C@@H](NC(=O)[C@H](CCC(=O)O)NC(=O)CC(C)C)[C@@H](C)O)C(c2ccccc2)c2ccccc2)C(=O)N1)C(=O)N[C@H](C(=O)N[C@H](CCCCN)C(N)=O)C(c1ccccc1)c1ccccc1 [compound 162] (Isovaleryl-ETH[Dip]PCC[hCys](X3)[Dip][dK]-NH2; disulfide 6-7) is 8.00 to 9.00

---

biological target: UniProt Q9NP59; assay: FPN activity assay: ferroportin-GFP internalization/degradation in HEK293 cells; type: cell-based; set-up: expressed in transfected cells; details: ferroportin-GFP HEK293 cells, at least 18 hours; read-out: FPN IC50
Starred links: 1 amine or outer side, 2 acyl side, 3 side chain; linkers in the order of their positions; H or OH if unused. Positions of bridges follow the written chain, without caps; N, C: chain ends. Non-standard residues stand in square brackets, D forms with d. Residues, ends and D or L forms follow the SMILES beside them. Groups on a side chain read outwards from the residue. *: point of attachment. C18 diacid = O=C(O)CCCCCCCCCCCCCCCCC(=O)*; Dip = N[C@H](C(=O)O)C(c1ccccc1)c1ccccc1; γGlu = O=C(O)[C@H](CCC(=O)[*:2])N[*:1]; Palmitoyl = CCCCCCCCCCCCCCCC(=O)*; β3hF = N[C@H](CC(=O)O)Cc1ccccc1; Isovaleryl = CC(C)CC(=O)*; hCys = N[C@@H](CCS)C(=O)O; AEEA = NCCOCCOCC(=O)O; Ahx = NCCCCCC(=O)O
readout_type: DC50

# molecule, DC50
data = [
    ("CC[C@H](C)[C@H](NC(=O)[C@@H]1CSSC[C@H](NC(=O)[C@H](Cc2c[nH]cn2)NC(=O)[C@@H](NC(=O)[C@H](CCC(=O)O)NC(=O)CC(C)C)[C@@H](C)O)C(=O)N2CCC[C@H]2C(=O)N1)C(=O)N[C@H](CCCCN)C(=O)N[C@H](CC(=O)N[C@@H](CCCCNC(=O)COCCOCCNC(=O)COCCOCCNC(=O)CC[C@H](NC(=O)CCCCCCCCCCCCCCCCC(=O)O)C(=O)O)C(=O)N[C@H](CCCCN)C(N)=O)Cc1ccccc1 [Compd 33] (Isovaleryl-ETHCPCI[dK][β3hF]K([AEEA-AEEA-γGlu-C18 diacid])[dK]-NH2; disulfide 4-6)", "> 500 nM"),
]

Alright, here's another molecule for you.
CCCCCCCCCCCCCCCC(=O)NCCCCCC(=O)NCCCC[C@H](NC(=O)C[C@H](Cc1ccccc1)NC(=O)[C@@H]1CCSSCC[C@H](NC(=O)CC(C)C)C(=O)N[C@@H]([C@@H](C)O)C(=O)N[C@@H](Cc2cnc[nH]2)C(=O)N[C@@H](C(c2ccccc2)c2ccccc2)C(=O)N2CCC[C@H]2C(=O)N[C@@H](C)C(=O)N[C@@H]([C@@H](C)CC)C(=O)N1)C(=O)N[C@H](CCCCN)C(N)=O [compound 111] (Isovaleryl-[hCys]TH[Dip]PAI[hCys][β3hF]K([Ahx-Palmitoyl])[dK]-NH2; disulfide 1-8) has a reported DC50 of 10 to 100 nM
